- system-under-test: CpomGOBP2c (Cydia pomonella)
- Sequence (J7GAV3 entry or part of it): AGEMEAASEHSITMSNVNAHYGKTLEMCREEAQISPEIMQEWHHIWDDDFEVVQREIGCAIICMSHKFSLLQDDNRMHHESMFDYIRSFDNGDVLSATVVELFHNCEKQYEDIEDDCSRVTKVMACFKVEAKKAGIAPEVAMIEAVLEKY
- assay-procedure: Fluorescence competitive binding assay (1-NPN probe), recombinant CpomGOBP2c
- assay-setup: 2.0 µM protein in 50 mM Tris-HCl pH 7.4 titrated with 1-NPN, read-out: dissociation constant with 1-NPN
pKd: −log10 of the molar value.

# test-smiles, pKd
records = [
    ("c1ccc(Nc2cccc3ccccc23)cc1", 4.72),
]

* * *

- system-under-test: CpomGOBP2b (Cydia pomonella)
- assay-procedure: Fluorescence competitive binding assay (1-NPN probe), recombinant CpomGOBP2b
- assay-setup: 2.0 µM protein in 50 mM Tris-HCl pH 7.4 titrated with 1-NPN, read-out: dissociation constant with 1-NPN

# test-smiles, measurement-unit, Kd
measured = [
    ("c1ccc(Nc2cccc3ccccc23)cc1", "µM", 27.5),
]
